Data provenance is patent EP4566596A1.

test: Mouse blood drug concentrations after oral administration (LC-MS/MS); format: in vivo, mice (ICR strain); conditions: mouse, in vivo, ICR mice, plasma, read-out: Elimination half-life
OBSERVED PROPERTY: half-life

| MOLECULE | ENDPOINT RESULT |
| --- | --- |
| Cc1ccccc1NC(=O)c1cccc(C(=O)Nc2ccc(F)cc2)c1F [CBT-078, reference compound] | 32 min |

====

assay: Mouse blood drug concentrations after oral administration (LC-MS/MS); type: in vivo, mice (ICR strain); conditions: male, mouse, ICR mice, plasma, read-out: Elimination half-life
OBSERVED PROPERTY: half-life (h)

| COMPOUND SMILES | ENDPOINT RESULT |
| --- | --- |
| Cc1cc(C#N)ccc1NC(=O)c1cccc(C(=O)Nc2ccc(F)cc2)c1F | 13.8 |
